Assayed system: CDK7 complex (CDK7, Cyclin H, MAT1) (Homo sapiens)
Construct: purchased Proqinase GmbH, Germany
Sequence (P50613 whole entry): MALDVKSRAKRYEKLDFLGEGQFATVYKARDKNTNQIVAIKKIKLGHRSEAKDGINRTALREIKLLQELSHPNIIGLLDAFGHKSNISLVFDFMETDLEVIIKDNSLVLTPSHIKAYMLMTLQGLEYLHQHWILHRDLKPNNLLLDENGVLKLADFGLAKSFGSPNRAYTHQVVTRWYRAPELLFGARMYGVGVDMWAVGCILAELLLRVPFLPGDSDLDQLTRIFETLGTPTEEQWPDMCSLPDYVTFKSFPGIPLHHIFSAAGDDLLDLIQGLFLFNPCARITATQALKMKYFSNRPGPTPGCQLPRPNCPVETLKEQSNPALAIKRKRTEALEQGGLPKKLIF
Sequence (P51946 whole entry partner): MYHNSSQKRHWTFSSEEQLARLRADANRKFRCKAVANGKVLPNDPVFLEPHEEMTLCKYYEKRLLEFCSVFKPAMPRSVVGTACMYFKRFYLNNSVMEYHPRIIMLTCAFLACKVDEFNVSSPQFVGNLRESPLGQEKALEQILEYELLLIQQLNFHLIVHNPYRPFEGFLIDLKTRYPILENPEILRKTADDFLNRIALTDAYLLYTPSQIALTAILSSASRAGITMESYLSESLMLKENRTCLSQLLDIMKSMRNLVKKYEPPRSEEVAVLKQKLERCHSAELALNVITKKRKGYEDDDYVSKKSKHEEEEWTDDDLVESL
Sequence (P51948 whole entry partner): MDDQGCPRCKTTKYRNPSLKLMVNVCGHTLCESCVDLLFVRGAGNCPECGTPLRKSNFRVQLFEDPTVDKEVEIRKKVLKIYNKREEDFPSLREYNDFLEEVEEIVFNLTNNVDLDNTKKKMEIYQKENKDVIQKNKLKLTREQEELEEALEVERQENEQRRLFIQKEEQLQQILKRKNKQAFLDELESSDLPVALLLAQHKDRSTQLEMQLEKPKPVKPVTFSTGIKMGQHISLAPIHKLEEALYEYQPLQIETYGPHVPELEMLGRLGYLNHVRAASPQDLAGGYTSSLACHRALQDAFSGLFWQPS
Assay procedure: CDK7/CycH/MAT1 trimeric complex kinase assay (PKLight luciferase)
Format: biochemical
Test context: 100 nM; mean of three (standard deviation); read-out: CDK7 % remaining kinase activity after incubation with 100 nM of compound
Test readout: remaining activity at 0.1 µM (%)
Numeric only. Scale: %

Q: # returns recorded remaining activity at 0.1 µM (system: CDK7 complex (CDK7, Cyclin H, MAT1) (Homo sapiens)) for `CC(C)c1cnn2c(N[C@H](C)c3ccccc3)cc(NCCCCCCN)nc12`
Result: 100

Q: Provide the documented remaining activity at 0.1 µM with CDK7 complex (CDK7, Cyclin H, MAT1) (Homo sapiens) as the system for `CC(C)c1cnn2c(NCc3ccccc3F)cc(N[C@H]3CC[C@H](N)CC3)nc12`
Result: 54

Q: Notebook entry, CDK7 complex (CDK7, Cyclin H, MAT1) (Homo sapiens) assay: remaining activity at 0.1 µM of `CC[C@H](CO)Nc1cc(NCc2ccccc2F)n2ncc(C(C)C)c2n1` = ?
Result: 42

Q: What reported remaining activity at 0.1 µM corresponds to `CC(C)c1cnn2c(NCc3ccccc3)cc(NCC/C=C/CCN)nc12` on CDK7 complex (CDK7, Cyclin H, MAT1) (Homo sapiens)?
Result: 21

Q: Query the reported remaining activity at 0.1 µM for CDK7 complex (CDK7, Cyclin H, MAT1) (Homo sapiens); item: CC(C)c1cnn2c(NCc3ccccc3F)cc(NCC(O)CO)nc12 (stereo not drawn)
Result: 88

Q: Query for CDK7 complex (CDK7, Cyclin H, MAT1) (Homo sapiens): what remaining activity at 0.1 µM does the record show for `CC(C)c1cnn2c(NCc3cccc(OS(=O)(=O)c4cccc5c(N(C)C)cccc45)c3)cc(NCCCCCN)nc12` ?
Result: 47

Q: What reported remaining activity at 0.1 µM corresponds to `CC(C)c1cnn2c(NCc3ccccc3)cc(NCCCCN)nc12` on CDK7 complex (CDK7, Cyclin H, MAT1) (Homo sapiens)?
Result: 12.6

Q: remaining activity at 0.1 µM of `CC(C)c1cnn2c(NCc3ccccc3F)cc(NCCCCCCc3ccc(N)nc3)nc12` on CDK7 complex (CDK7, Cyclin H, MAT1) (Homo sapiens)?
Result: 83

# evaluate next
Q: Tell me reported remaining activity at 0.1 µM for `CC(C)c1cnn2c(N[C@@H](C)c3ccccc3)cc(NCCCCCCNc3cc(N[C@@H](C)c4ccccc4)n4ncc(C(C)C)c4n3)nc12` , tested with CDK7 complex (CDK7, Cyclin H, MAT1) (Homo sapiens).
Result: 91
